Value source: patent USRE37781E1

Molecular target: HIV protease (Human immunodeficiency virus type 1 group M subtype B)
Construct: plasmid containing HIV protease under the control of an inducible T7 promoter; made in house; host or cells: E. coli (inclusion bodies, T7 promoter)
Experiment: biochemical
Design: species or system HIV-1
Details: Table 2k; read-out: Ki
RESULT_TYPE: Ki

Read off the recorded Ki for O=C1N(Cc2cccc(O)c2)C(Cc2ccccc2)C(O)C(Cc2ccccc2)N1Cc1cccc(O)c1 (stereo not shown) [Example 22A]
10 to 1000 nM

* * *

Target: single-chain tethered dimer of HIV protease (Human immunodeficiency virus 1)
Assay: biochemical
Format: biochemical
Design: fused on or other part: A second copy of the same protease unit is joined to the first by a short peptide tether, giving one polypeptide
Details: Table 2r; read-out: Ki HPLC
In this section, each of the molecules is paired with its reported Ki.

COP1(=O)N(Cc2ccc(CO)cc2)[C@H](Cc2ccccc2)[C@H](O)[C@@H](O)[C@@H](Cc2ccccc2)N1Cc1ccc(CO)cc1 (stereo partly drawn) [28H]	10 to 1000 nM

Read off the recorded Ki for O=P1(Oc2ccccc2)N(Cc2ccc(CO)cc2)[C@H](Cc2ccccc2)[C@H](O)[C@@H](O)[C@@H](Cc2ccccc2)N1Cc1ccc(CO)cc1 (stereo partly drawn) [28E]
10 to 1000 nM

Read off the recorded Ki for CCOP1(=O)N[C@H](Cc2ccccc2)[C@H](O)[C@@H](O)[C@@H](Cc2ccccc2)N1 (stereo partly drawn) [28F]
> 1000 nM

* * *

Test system: HIV-1 (RF) in MT-2 cells
Assay: microbe, parasite or virus in culture
Type: cell-based
Details: Table 2r
RESULT_TYPE: IC90

CN(C)P1(=O)N(CC2CC2)[C@H](Cc2ccccc2)[C@H](O)[C@@H](O)[C@@H](Cc2ccccc2)N1CC1CC1 (stereo partly drawn) [28G]	++ (++=10 to 100 μg/mL)
COP1(=O)N(Cc2ccc(CO)cc2)[C@H](Cc2ccccc2)[C@H](O)[C@@H](O)[C@@H](Cc2ccccc2)N1Cc1ccc(CO)cc1 (stereo partly drawn) [28H]	++ (++=10 to 100 μg/mL)
CNc1cccc(CN2[C@H](Cc3ccccc3)[C@H](O)[C@@H](O)[C@@H](Cc3ccccc3)N(Cc3cccc(NC)c3)P2(=O)Oc2ccccc2)c1 (stereo partly drawn) [28L]	++ (++=10 to 100 μg/mL)
O=P1(Oc2ccccc2)N(CC2CC2)[C@H](Cc2ccccc2)[C@H](O)[C@@H](O)[C@@H](Cc2ccccc2)N1CC1CC1 (stereo partly drawn) [28C]	+++ (+++=<10 μg/mL)
O=P1(Oc2ccccc2)N(Cc2ccc(CO)cc2)[C@H](Cc2ccccc2)[C@H](O)[C@@H](O)[C@@H](Cc2ccccc2)N1Cc1ccc(CO)cc1 (stereo partly drawn) [28E]	+++ (+++=<10 μg/mL)

Read off the recorded IC90 for O=P1(Oc2ccccc2)N(Cc2cccc(CO)c2)[C@H](Cc2ccccc2)[C@H](O)[C@@H](O)[C@@H](Cc2ccccc2)N1Cc1cccc(CO)c1 (stereo partly drawn) [28J]
++ (++=10 to 100 μg/mL)

* * *

Target: HIV protease (Human immunodeficiency virus type 1 group M subtype B, UniProt P04585)
Construct: plasmid containing HIV protease under the control of an inducible T7 promoter; made in house; host or cells: E. coli (inclusion bodies, T7 promoter)
Experiment: biochemical
Parameters: species or system HIV-1
Conditions: Table 1a; read-out: Ki
RESULT_TYPE: Ki

O=C1N(CC=Cc2ccccc2)C(Cc2ccccc2)C(O)C(O)C(Cc2ccccc2)N1CC=Cc1ccccc1 (stereo not shown)	< 0.01 µM
C=CCN1C(=O)N(CC=C)C(Cc2ccccc2)C(O)C(O)C1Cc1ccccc1 (stereo not shown) [Example 1H]	> 1 µM
CC(C)CCCC(C)CCN1C(=O)N(CCC(C)CCCC(C)C)C(Cc2ccccc2)C(O)C(O)C1Cc1ccccc1 (stereo not shown)	0.01 to 1 µM
CC(C)CN1C(=O)N(CC(C)C)C(Cc2ccccc2)C(O)C(O)C1Cc1ccccc1 (stereo not shown)	0.01 to 1 µM
C#CCN1C(=O)N(CC#C)C(Cc2ccccc2)C(O)C(O)C1Cc1ccccc1 (stereo not shown)	0.01 to 1 µM

Read the next record carefully.
Provide measured Ki on HIV protease (Human immunodeficiency virus type 1 group M subtype B, UniProt P04585) for CC(C)CCN1C(=O)N(CCC(C)C)C(Cc2ccccc2)C(O)C(O)C1Cc1ccccc1 (stereo not shown) please.
< 0.01 µM

* * *

Test system: HIV-1 (RF) in MT-2 cells
Test: microbe, parasite or virus in culture
Type: cell-based
Conditions: Human immunodeficiency virus 1, MT2, 24 h, Table 1d, upper part; read-out: IC90
RESULT_TYPE: IC90

In the examples that follow, each entry is paired with its recorded IC90.
CC(=O)OC1C(O)C(Cc2ccccc2)N(Cc2ccc3ccccc3c2)C(=O)N(Cc2ccc3ccccc3c2)C1Cc1ccccc1 (stereo not shown)	> 100 µg/mL
CS(=O)(=O)OC1C(O)C(Cc2ccccc2)N(Cc2ccc3ccccc3c2)C(=O)N(Cc2ccc3ccccc3c2)C1Cc1ccccc1 (stereo not shown)	< 10 µg/mL
CC(=O)OC1C(OC(C)=O)C(Cc2ccccc2)N(Cc2ccc3ccccc3c2)C(=O)N(Cc2ccc3ccccc3c2)C1Cc1ccccc1 (stereo not shown)	> 100 µg/mL

Read the next record carefully.
Read off the recorded IC90 for O=C1N(Cc2ccc3ccccc3c2)C(Cc2ccccc2)C2OC(=S)OC2C(Cc2ccccc2)N1Cc1ccc2ccccc2c1 (stereo not shown)
> 100 µg/mL

* * *

Target: single-chain tethered dimer of HIV protease (Human immunodeficiency virus 1)
Assay: biochemical
Assay type: biochemical
Design: fused on or other part: A second copy of the same protease unit is joined to the first by a short peptide tether, giving one polypeptide
Settings: read-out: HPLC K1; Table 2d; class symbols
pKi: −log10 of the molar value.
In this section, each of the compounds is paired with its reported pKi.

In the examples that follow, each entry is paired with its recorded pKi.
O=C1N(CCCCCCCO)C(Cc2ccccc2)C(O)C(O)C(Cc2ccccc2)N1CCCCCCCO (stereo not shown) [Example 12P]	6.00 to 8.00
CC(=O)CCCCN1C(=O)N(CCCCC(C)=O)C(Cc2ccccc2)C(O)C(O)C1Cc1ccccc1 (stereo not shown) [Example 15WB]	6.00 to 8.00
NC(=O)c1cccc(CN2C(=O)N(Cc3cccc(C(N)=O)c3)C(Cc3ccccc3)C(O)C(O)C2Cc2ccccc2)c1 (stereo not shown) [10G]	> 8.00
CC(=O)c1cccc(CN2C(=O)N(Cc3cccc(C(C)=O)c3)C(Cc3ccccc3)C(O)C(O)C2Cc2ccccc2)c1 (stereo not shown)	6.00 to 8.00
O=C(O)c1cccc(CN2C(=O)N(CC3CC3)C(Cc3ccccc3)C(O)C(O)C2Cc2ccccc2)c1 (stereo not shown) [15WQ]	> 8.00

Read off the recorded pKi for CC(O)c1cccc(CN2C(=O)N(Cc3cccc(Br)c3)C(Cc3ccccc3)C(O)C(O)C2Cc2ccccc2)c1 (stereo not shown)
6.00 to 8.00

Read off the recorded pKi for O=C1N(Cc2ccc(CO)o2)C(Cc2ccccc2)C(O)C(O)C(Cc2ccccc2)N1Cc1ccc(CO)o1 (stereo not shown) [Example 13X]
6.00 to 8.00

Read off the recorded pKi for O=C1N(Cc2cccc(C=NO)c2)C(Cc2ccccc2)C(O)C(O)C(Cc2ccccc2)N1Cc1cccc(CNO)c1 (stereo not shown)
6.00 to 8.00

Read off the recorded pKi for O=C(O)c1cccc(CN2C(=O)N(Cc3ccc(CO)cc3)C(Cc3ccccc3)C(O)C(O)C2Cc2ccccc2)c1 (stereo not shown) [15WR]
> 8.00

Read off the recorded pKi for CNC(=O)c1cccc(CN2C(=O)N(Cc3cccc(C(=O)OC)c3)C(Cc3ccccc3)C(O)C(O)C2Cc2ccccc2)c1 (stereo not shown) [11G]
> 8.00

* * *

In this section, each of the compounds is paired with its reported pKi.
Target: single-chain tethered dimer of HIV protease (Human immunodeficiency virus 1)
Assay: biochemical
Assay type: biochemical
Parameters: fused on or other part: A second copy of the same protease unit is joined to the first by a short peptide tether, giving one polypeptide
Conditions: Table 2m; read-out: HPLC Ki
pKi: −log10 of the molar value.

O=S1(=O)N(CCCCCO)C(Cc2ccccc2)C(O)C(O)C(Cc2ccccc2)N1Cc1ccc(CO)cc1 (stereo not shown) [23AG]	> 8.00
O=S1(=O)N(Cc2ccccc2)C(Cc2ccccc2)C(O)C(O)C(Cc2ccccc2)N1Cc1ccccc1 (stereo not shown) [23I]	6.00 to 8.00
CCCCN1C(Cc2ccccc2)C(O)C(O)C(Cc2ccccc2)N(CCCC)S1(=O)=O (stereo not shown) [23G]	> 8.00
N#Cc1cccc(CN2C(Cc3ccccc3)C(O)C(O)C(Cc3ccccc3)N(Cc3cccc(C#N)c3)S2(=O)=O)c1 (stereo not shown) [23Y]	6.00 to 8.00
CN1C(Cc2ccccc2)C(O)C(O)C(Cc2ccccc2)N(C)S1(=O)=O (stereo not shown) [23V]	< 6.00

Read off the recorded pKi for O=S1(=O)N(CCCCCO)C(Cc2ccccc2)C(O)C(O)C(Cc2ccccc2)N1Cc1cccc(CO)c1 (stereo not shown) [23AH]
> 8.00

Read off the recorded pKi for Nc1cccc(CN2C(Cc3ccccc3)C(O)C(O)C(Cc3ccccc3)N(Cc3cccc(N)c3)S2(=O)=O)c1 (stereo not shown) [23M]
> 8.00
